# System: GTPase KRas (Homo sapiens), P01116 [UNDEFINED MUTATION]
# Sequence (P01116 whole entry, looked up, change not shown): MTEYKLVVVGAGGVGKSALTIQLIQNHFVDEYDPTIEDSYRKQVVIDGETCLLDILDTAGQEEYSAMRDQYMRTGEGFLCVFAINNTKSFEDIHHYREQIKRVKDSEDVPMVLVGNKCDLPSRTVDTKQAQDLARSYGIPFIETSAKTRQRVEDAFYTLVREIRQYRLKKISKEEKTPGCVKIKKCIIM
# ASSAY_METHOD_TEXT: Inhibition of KRas mutant in human DLD1 cells assessed as cell viability by measuring ATP at 0.2 uM relative to control
# Assay type: cell-based
METRIC: inhibition (%)
Value expressed in %; do not type the unit.

Inquiry: For the molecule "Cc1c2c(c(CCCCBr)c3c1Oc1ccccc1O3)C(=O)OC2" , give its measured inhibition value.
Reply text: 30

Inquiry: Indicate its recorded inhibition; the molecule in question is "CCCCCc1c2c(c(C)c3c1C(=O)OC3)Oc1ccccc1O2"
Reply text: 60

Inquiry: Provide one value: measured inhibition of "CCCCCCc1c2c(c(C)c3c1C(=O)OC3)Oc1ccccc1O2"
Reply text: 14

Inquiry: Consider the molecule "Cc1c2c(c(CCCCBr)c3c1C(=O)OC3)Oc1ccccc1O2" and give its recorded inhibition.
Reply text: 0.4

Inquiry: Fill in inhibition for record "CCCCCCc1c2c(c(C)c3c1Oc1ccccc1O3)C(=O)OC2"
Reply text: 29

Inquiry: Please report inhibition for the following molecule: "CCCCc1c2c(c(C)c3c1C(=O)OC3)Oc1ccccc1O2"
Reply text: 17

Inquiry: Give inhibition for the following molecule: "CCCCCCc1c2c(c(C)c3c1Oc1ccccc1O3)C(=O)SC2"
Reply text: -10

Inquiry: Item "CCCCCCc1c2c(c(C)c3c1C(=O)SC3)Oc1ccccc1O2" : provide inhibition
Reply text: -9
